Hey, just so you know, these numbers are from patent US20250281630A1.

- targetOrSystem: T1, mouse CAPRIN-1 on mouse cancer cells (mouse, UniProt Q60865 2-707)
- T1 construct: whole, on cells
- T1 sequence (looked up): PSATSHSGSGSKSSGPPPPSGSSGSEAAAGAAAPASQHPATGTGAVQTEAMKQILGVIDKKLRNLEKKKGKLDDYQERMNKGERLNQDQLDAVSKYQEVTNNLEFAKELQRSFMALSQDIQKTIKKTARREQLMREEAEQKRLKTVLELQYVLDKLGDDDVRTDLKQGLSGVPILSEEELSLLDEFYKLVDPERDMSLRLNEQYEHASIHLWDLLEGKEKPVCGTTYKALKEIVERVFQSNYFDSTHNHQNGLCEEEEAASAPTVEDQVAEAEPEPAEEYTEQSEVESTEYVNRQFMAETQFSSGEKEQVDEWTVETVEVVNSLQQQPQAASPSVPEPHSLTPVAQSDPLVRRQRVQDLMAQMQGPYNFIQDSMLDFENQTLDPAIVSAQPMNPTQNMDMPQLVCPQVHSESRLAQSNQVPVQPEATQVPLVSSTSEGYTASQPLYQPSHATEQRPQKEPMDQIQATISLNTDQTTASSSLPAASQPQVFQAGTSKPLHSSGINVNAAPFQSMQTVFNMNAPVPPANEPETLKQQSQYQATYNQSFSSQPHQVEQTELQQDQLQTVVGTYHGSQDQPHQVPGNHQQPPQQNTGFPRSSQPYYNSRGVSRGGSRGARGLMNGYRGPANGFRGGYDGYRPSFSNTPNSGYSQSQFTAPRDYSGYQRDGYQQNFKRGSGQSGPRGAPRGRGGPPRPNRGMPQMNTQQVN
- assayName: flow cytometry, Renca and 4T1 cells
measure: binding result

Conjugate 124 (antibody, V domains shown, human IgG1 constant regions; also called conjugate with MMAE using humanized antibody #38) VH: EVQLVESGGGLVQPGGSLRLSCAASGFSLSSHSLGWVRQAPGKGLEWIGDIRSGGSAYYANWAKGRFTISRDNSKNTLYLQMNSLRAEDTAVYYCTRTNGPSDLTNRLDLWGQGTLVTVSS VL: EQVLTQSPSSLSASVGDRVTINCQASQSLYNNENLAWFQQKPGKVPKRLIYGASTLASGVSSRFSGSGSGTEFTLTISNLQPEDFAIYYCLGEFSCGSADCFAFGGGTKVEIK; binds
Conjugate 122 (antibody, V domains shown, human IgG1 constant regions; also called conjugate with MMAE using humanized antibody #36) VH: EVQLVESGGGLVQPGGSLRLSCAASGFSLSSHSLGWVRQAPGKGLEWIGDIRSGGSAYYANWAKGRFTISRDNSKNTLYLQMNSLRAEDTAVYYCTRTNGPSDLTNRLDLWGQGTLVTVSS VL: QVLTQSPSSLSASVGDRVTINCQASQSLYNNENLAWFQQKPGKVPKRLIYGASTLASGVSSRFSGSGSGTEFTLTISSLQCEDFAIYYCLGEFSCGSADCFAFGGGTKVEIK; binds
Conjugate 19 (antibody, human IgG1, V domains shown, human IgG1 constant regions; also called conjugate with MMAE using humanized antibody #13) VH: GAELVRSGASVKMSCKASGYSFTDYNMYWVKQTPGQGLEWIGYIYPGNGGTNYNQKFKGKATLTADTSSSTAYMQISSLTSEDSAVYFCARDYDDGGYAMDYWGQGTTVTVSS VL: DIQMTQSPASLSASVGETVTITCRASGNIHNYLTWYQQKQGKSPQLLVYNAKTLADGVPSRFSGSGSGTQYSLKINRLQPEDFGSYYCQHFWNIPWTFGGGTKLNSR; binds
